- Tested on: Clostridium leptum
- ASSAY EXPLANATION: Antibacterial activity against Clostridium leptum by CLSI M11-A6 agar dilution method
- Format: functional
# MIC50 values compiled below
State the answer as a number, implicitly in mg/L.

Worked examples, 2 compounds total:
CCCCCCCCCC(=O)N[C@@H](Cc1c[nH]c2ccccc12)C(=O)N[C@H](CC(N)=O)C(=O)N[C@@H](CC(=O)O)C(=O)N[C@@H]1C(=O)NCC(=O)N[C@@H](CCCN)C(=O)N[C@@H](CC(=O)O)C(=O)N[C@H](C)C(=O)N[C@@H](CC(=O)O)C(=O)NCC(=O)N[C@H](CO)C(=O)N[C@@H]([C@H](C)CC(=O)O)C(=O)N[C@@H](CC(=O)c2ccccc2N)C(=O)O[C@@H]1C ... 1
CC(=O)NC[C@H]1CN(c2ccc(N3CCOCC3)c(F)c2)C(=O)O1 [LINEZOLID] ... 2

Now for the compound whose MIC50 we want.
Reported MIC50, compound Cc1ncc([N+](=O)[O-])n1CCO [METRONIDAZOLE] : ____ 0.25

###

We begin with a simple list: items and their reported MIC50.
- Tested on: Clostridioides difficile
- ASSAY EXPLANATION: Antibacterial activity against Clostridium difficile by CLSI M11-A6 agar dilution method
- Assay type: functional
Enter your answer as a number in µg/mL; do not include the unit.

CCCCCCCCCCNCCN[C@@]1(C)C[C@H](O[C@H]2[C@H](Oc3c4cc5cc3Oc3ccc(cc3Cl)[C@@H](O)[C@@H](NC(=O)[C@@H](CC(C)C)NC)C(=O)N[C@@H](CC(N)=O)C(=O)N[C@H]5C(=O)N[C@H]3C(=O)N[C@H](C(=O)N[C@H](C(=O)O)c5cc(O)c(CNCP(=O)(O)O)c(O)c5-c5cc3ccc5O)[C@H](O)c3ccc(c(Cl)c3)O4)O[C@H](CO)[C@@H](O)[C@@H]2O)O[C@@H](C)[C@H]1O [TELAVANCIN] ... 0.25

Moving on to another molecule below.
Param readout = MIC50; param system = Clostridioides difficile; param query = Cc1ncc([N+](=O)[O-])n1CCO [METRONIDAZOLE] ; response: value 0.5

###

- Test system: Fusobacterium varium
- ASSAY EXPLANATION: Antibacterial activity against Fusobacterium varium by CLSI M11-A6 agar dilution method
- Assay type: functional
READOUT: MIC90

CC(=O)NC[C@H]1CN(c2ccc(N3CCOCC3)c(F)c2)C(=O)O1 ... 1 µg/mL
CCCCCCCCCCNCCN[C@@]1(C)C[C@H](O[C@H]2[C@H](Oc3c4cc5cc3Oc3ccc(cc3Cl)[C@@H](O)[C@@H](NC(=O)[C@@H](CC(C)C)NC)C(=O)N[C@@H](CC(N)=O)C(=O)N[C@H]5C(=O)N[C@H]3C(=O)N[C@H](C(=O)N[C@H](C(=O)O)c5cc(O)c(CNCP(=O)(O)O)c(O)c5-c5cc3ccc5O)[C@H](O)c3ccc(c(Cl)c3)O4)O[C@H](CO)[C@@H](O)[C@@H]2O)O[C@@H](C)[C@H]1O ... > 64 µg/mL

Now look at this one.
Missing value: MIC90, Fusobacterium varium, entry CN[C@H](CC(C)C)C(=O)N[C@H]1C(=O)N[C@@H](CC(N)=O)C(=O)N[C@H]2C(=O)N[C@H]3C(=O)N[C@H](C(=O)N[C@H](C(=O)O)c4cc(O)cc(O)c4-c4cc3ccc4O)[C@H](O)c3ccc(c(Cl)c3)Oc3cc2cc(c3O[C@@H]2O[C@H](CO)[C@@H](O)[C@H](O)[C@H]2O[C@H]2C[C@](C)(N)[C@H](O)[C@H](C)O2)Oc2ccc(cc2Cl)[C@H]1O . Fill in? > 128 µg/mL

###

Reported MIC50 by item:
- System: Clostridium spiroforme
- ASSAY EXPLANATION: Antibacterial activity against Clostridium spiroforme by CLSI M11-A6 agar dilution method
- Assay type: functional
- APPLIED CONDITIONS: Thomasclavelia spiroformis
Kindly answer with a numeric value in µg/mL, unit omitted.

So what's the measured MIC50 for this one? CN[C@H](CC(C)C)C(=O)N[C@H]1C(=O)N[C@@H](CC(N)=O)C(=O)N[C@H]2C(=O)N[C@H]3C(=O)N[C@H](C(=O)N[C@H](C(=O)O)c4cc(O)cc(O)c4-c4cc3ccc4O)[C@H](O)c3ccc(c(Cl)c3)Oc3cc2cc(c3O[C@@H]2O[C@H](CO)[C@@H](O)[C@H](O)[C@H]2O[C@H]2C[C@](C)(N)[C@H](O)[C@H](C)O2)Oc2ccc(cc2Cl)[C@H]1O 1

###

- Tested on: Eggerthella lenta
- ASSAY EXPLANATION: Antibacterial activity against Eggerthella lenta by CLSI M11-A6 agar dilution method
- Format: functional
MIC50 by entry:
State the answer as a number, implicitly in µg/mL.

CC(=O)NC[C@H]1CN(c2ccc(N3CCOCC3)c(F)c2)C(=O)O1 [LINEZOLID] ... 1
CN[C@H](CC(C)C)C(=O)N[C@H]1C(=O)N[C@@H](CC(N)=O)C(=O)N[C@H]2C(=O)N[C@H]3C(=O)N[C@H](C(=O)N[C@H](C(=O)O)c4cc(O)cc(O)c4-c4cc3ccc4O)[C@H](O)c3ccc(c(Cl)c3)Oc3cc2cc(c3O[C@@H]2O[C@H](CO)[C@@H](O)[C@H](O)[C@H]2O[C@H]2C[C@](C)(N)[C@H](O)[C@H](C)O2)Oc2ccc(cc2Cl)[C@H]1O [VANCOMYCIN] ... 0.5
Cc1ncc([N+](=O)[O-])n1CCO [METRONIDAZOLE] ... 1

Here is the next item to consider.
Give the measured MIC50 of CCCCCCCCCC(=O)N[C@@H](Cc1c[nH]c2ccccc12)C(=O)N[C@H](CC(N)=O)C(=O)N[C@@H](CC(=O)O)C(=O)N[C@@H]1C(=O)NCC(=O)N[C@@H](CCCN)C(=O)N[C@@H](CC(=O)O)C(=O)N[C@H](C)C(=O)N[C@@H](CC(=O)O)C(=O)NCC(=O)N[C@H](CO)C(=O)N[C@@H]([C@H](C)CC(=O)O)C(=O)N[C@@H](CC(=O)c2ccccc2N)C(=O)O[C@@H]1C . 1

###

- System: Coriobacterium
- ASSAY EXPLANATION: Antibacterial activity against […] by CLSI M11-A6 agar dilution method
- Type: functional
Items are presented alongside their recorded MIC90.
Unit µg/mL implied. Number only.

Example results:
Cc1ncc([N+](=O)[O-])n1CCO [METRONIDAZOLE] ... 128
CN[C@H](CC(C)C)C(=O)N[C@H]1C(=O)N[C@@H](CC(N)=O)C(=O)N[C@H]2C(=O)N[C@H]3C(=O)N[C@H](C(=O)N[C@H](C(=O)O)c4cc(O)cc(O)c4-c4cc3ccc4O)[C@H](O)c3ccc(c(Cl)c3)Oc3cc2cc(c3O[C@@H]2O[C@H](CO)[C@@H](O)[C@H](O)[C@H]2O[C@H]2C[C@](C)(N)[C@H](O)[C@H](C)O2)Oc2ccc(cc2Cl)[C@H]1O [VANCOMYCIN] ... 4
CC(=O)NC[C@H]1CN(c2ccc(N3CCOCC3)c(F)c2)C(=O)O1 [LINEZOLID] ... 8

I'd like to know its MIC90. The compound in question is CCC[C@@H]1C[C@@H](C(=O)N[C@@H]([C@H]2O[C@H](SC)[C@H](O)[C@@H](O)[C@H]2O)[C@H](C)Cl)N(C)C1 [CLINDAMYCIN] 1

Value lookup for MIC90; key = CCCCCCCCCCNCCN[C@@]1(C)C[C@H](O[C@H]2[C@H](Oc3c4cc5cc3Oc3ccc(cc3Cl)[C@@H](O)[C@@H](NC(=O)[C@@H](CC(C)C)NC)C(=O)N[C@@H](CC(N)=O)C(=O)N[C@H]5C(=O)N[C@H]3C(=O)N[C@H](C(=O)N[C@H](C(=O)O)c5cc(O)c(CNCP(=O)(O)O)c(O)c5-c5cc3ccc5O)[C@H](O)c3ccc(c(Cl)c3)O4)O[C@H](CO)[C@@H](O)[C@@H]2O)O[C@@H](C)[C@H]1O [TELAVANCIN] 0.5

Sample CCCCCCCCCC(=O)N[C@@H](Cc1c[nH]c2ccccc12)C(=O)N[C@H](CC(N)=O)C(=O)N[C@@H](CC(=O)O)C(=O)N[C@@H]1C(=O)NCC(=O)N[C@@H](CCCN)C(=O)N[C@@H](CC(=O)O)C(=O)N[C@H](C)C(=O)N[C@@H](CC(=O)O)C(=O)NCC(=O)N[C@H](CO)C(=O)N[C@@H]([C@H](C)CC(=O)O)C(=O)N[C@@H](CC(=O)c2ccccc2N)C(=O)O[C@@H]1C — what was its MIC90? 32

###

- Test system: Parabacteroides merdae
- ASSAY EXPLANATION: Antibacterial activity against Parabacteroides merdae by CLSI M11-A6 agar dilution method
- Assay type: functional
Recorded MIC50 by entry

CCC[C@@H]1C[C@@H](C(=O)N[C@@H]([C@H]2O[C@H](SC)[C@H](O)[C@@H](O)[C@H]2O)[C@H](C)Cl)N(C)C1 ... 2 µg/mL

Next up:
GET /values?readout=MIC50&item= CCCCCCCCCC(=O)N[C@@H](Cc1c[nH]c2ccccc12)C(=O)N[C@H](CC(N)=O)C(=O)N[C@@H](CC(=O)O)C(=O)N[C@@H]1C(=O)NCC(=O)N[C@@H](CCCN)C(=O)N[C@@H](CC(=O)O)C(=O)N[C@H](C)C(=O)N[C@@H](CC(=O)O)C(=O)NCC(=O)N[C@H](CO)C(=O)N[C@@H]([C@H](C)CC(=O)O)C(=O)N[C@@H](CC(=O)c2ccccc2N)C(=O)O[C@@H]1C > 128 µg/mL

Source listed as ChEMBL document CHEMBL1671662.
